Assay: Plasma stability ex vivo
Assay type: in vitro ADME
Conditions: human plasma, 37° C., read-out: t1/2 plasma
Reported half-life at 5 μg/mL by item:

| Compound | Prefix Operator | half-life at 5 μg/mL [min] |
| --- | --- | --- |
| CCN(CC)C(=O)/C(C#N)=C/c1cc(OC(=O)OCC(C)C)c(O)c([N+](=O)[O-])c1 | = | 7.7 |
| CCN(CC)C(=O)/C(C#N)=C/c1cc(OC(=O)OC2CCCCC2)c(O)c([N+](=O)[O-])c1 | = | 38.4 |
| CCN(CC)C(=O)/C(C#N)=C/c1cc(OC(=O)OCc2ccc([N+](=O)[O-])cc2)c(O)c([N+](=O)[O-])c1 | > | 8 |
| CCN(CC)C(=O)/C(C#N)=C/c1cc(OC(=O)OC2CC3CCC2(C)C3(C)C)c(O)c([N+](=O)[O-])c1 (stereo not drawn) | = | 2.8 |
| C=CCOC(=O)Oc1cc(/C=C(\C#N)C(=O)N(CC)CC)cc([N+](=O)[O-])c1O | = | 1 |
| CCCOC(=O)Oc1cc(/C=C(\C#N)C(=O)N(CC)CC)cc([N+](=O)[O-])c1O | = | 6.7 |
| CCN(CC)C(=O)/C(C#N)=C/c1cc(OC(=O)OCCc2cccs2)c(O)c([N+](=O)[O-])c1 | = | 28.2 |
| CCN(CC)C(=O)/C(C#N)=C/c1cc(OC(=O)OC(C)C)c(O)c([N+](=O)[O-])c1 | = | 13.4 |
| CCCCC(CC)COC(=O)Oc1cc(/C=C(\C#N)C(=O)N(CC)CC)cc([N+](=O)[O-])c1O (stereo not drawn) | = | 88.8 |
| CCN(CC)C(=O)/C(C#N)=C/c1cc(OC(=O)OCC2CCCCC2)c(O)c([N+](=O)[O-])c1 | = | 18.1 |
| CCOC(=O)Oc1cc(/C=C(\C#N)C(=O)N(CC)CC)cc([N+](=O)[O-])c1O | = | 0.8 |
| CCCCCCCCOC(=O)Oc1cc(/C=C(\C#N)C(=O)N(CC)CC)cc([N+](=O)[O-])c1O | = | 120 |

* * *

Test: Stability in TPGS/PG over 22 h
Type: physicochemical
Conditions: entacapone formed in TPGS/PG, 11 h

| Molecule | Amount of entacapone |
| --- | --- |
| CCCC(C)OC(=O)Oc1cc(/C=C(\C#N)C(=O)N(CC)CC)cc([N+](=O)[O-])c1O (stereo not shown) | 0.02 mg/mL |
| CCN(CC)C(=O)/C(C#N)=C/c1cc(OC(=O)OCC2CCCCC2)c(O)c([N+](=O)[O-])c1 | 0.05 mg/mL |
| CCCCC(CC)COC(=O)Oc1cc(/C=C(\C#N)C(=O)N(CC)CC)cc([N+](=O)[O-])c1O (stereo not shown) | 0.10 mg/mL |
| CCCCCCCCOC(=O)Oc1cc(/C=C(\C#N)C(=O)N(CC)CC)cc([N+](=O)[O-])c1O | 0.07 mg/mL |

* * *

Assay: Chemical hydrolysis stability at pH 1 and pH 7.4 (HPLC)
Assay type: physicochemical
Settings: pH 1; 0.1 N HCl, 37° C., over 12 h; read-out: t1/2 at pH 1 (converted)
Procedure: The stability of compounds of the present invention is tested at pH 1 and at pH 7.4. The testing is carried out by the following HPLC method: Chemical hydrolysis rates t1/2 [h] of selected compounds of formula I are determined in 0.1 N HCl (pH 1) and PBS buffer (pH 7.4) solution. […] Samples were withdrawn at designated time intervals and analysed for remaining prodrug by HPLC at 37° C. over 12 h. […]
Reported half-life by item:
Property Name: half-life

| Compound | Reported |
| --- | --- |
| C#CCCOC(=O)Oc1cc(/C=C(\C#N)C(=O)N(CC)CC)cc([N+](=O)[O-])c1O | 12.8 h |
| CCN(CC)C(=O)/C(C#N)=C/c1cc(OC(=O)OCC(=O)O)c(O)c([N+](=O)[O-])c1 | 11 h |
| CCN(CC)C(=O)/C(C#N)=C/c1cc(OC(=O)OCC(C)C)c(O)c([N+](=O)[O-])c1 | 6.8 h |
| CCN(CC)C(=O)/C(C#N)=C/c1cc(OC(=O)OC2CC3CCC2(C)C3(C)C)c(O)c([N+](=O)[O-])c1 (stereo not shown) | 12.8 h |

* * *

Reported Amount of entacapone by item:
Assay: Stability in TPGS/PG over 22 h
Assay type: physicochemical
Settings: entacapone formed in TPGS/PG, 5 h
Property Name: Amount of entacapone (mg/mL)

| Compound | Reported |
| --- | --- |
| CCCC(C)OC(=O)Oc1cc(/C=C(\C#N)C(=O)N(CC)CC)cc([N+](=O)[O-])c1O (stereo not shown) | 0.02 |
| CCCCCCCCOC(=O)Oc1cc(/C=C(\C#N)C(=O)N(CC)CC)cc([N+](=O)[O-])c1O | 0.03 |
| CCCCC(CC)COC(=O)Oc1cc(/C=C(\C#N)C(=O)N(CC)CC)cc([N+](=O)[O-])c1O (stereo not shown) | 0.05 |
| CCN(CC)C(=O)/C(C#N)=C/c1cc(OC(=O)OCC2CCCCC2)c(O)c([N+](=O)[O-])c1 | 0.03 |

* * *

Experiment: Solubility in 0.1 N HCl, PBS buffer, FaSSIF and FeSSIF
Assay type: physicochemical
Conditions: PBS buffer, pH 7.4, aqueous buffer, thermodynamic from solid, Table 11; read-out: Solubility PBS pH 7.4
Property Name: log10 of solubility at 10 min (log10 of the value in µg/mL)

| Compound | log10 of solubility at 10 min |
| --- | --- |
| CCCC(C)OC(=O)Oc1cc(/C=C(\C#N)C(=O)N(CC)CC)cc([N+](=O)[O-])c1O (stereo not drawn) | 3.09 |
| CCN(CC)C(=O)/C(C#N)=C/c1cc(OC(=O)OCC2CCCCC2)c(O)c([N+](=O)[O-])c1 | 2.41 |
| CCCCC(CC)COC(=O)Oc1cc(/C=C(\C#N)C(=O)N(CC)CC)cc([N+](=O)[O-])c1O (stereo not drawn) | 2.18 |
| CCN(CC)C(=O)/C(C#N)=C/c1cc(O)c(O)c([N+](=O)[O-])c1 | 3.13 |
| CCCCCCCCOC(=O)Oc1cc(/C=C(\C#N)C(=O)N(CC)CC)cc([N+](=O)[O-])c1O | 2.11 |
| CCC(CC)OC(=O)Oc1cc(/C=C(\C#N)C(=O)N(CC)CC)cc([N+](=O)[O-])c1O | 2.28 |

* * *

Assay: Chemical hydrolysis stability at pH 1 and pH 7.4 (HPLC)
Assay type: physicochemical
Details: pH 7.4; PBS buffer, 37° C., over 12 h; read-out: t1/2 at pH 7.4 (converted)
Criterion: half-life meeting or surpassing 8 h. Met: fulfilled. Not met: not fulfilled.

| Compound | Group |
| --- | --- |
| CCN(CC)C(=O)/C(C#N)=C/c1cc(OC(=O)OCc2ccc([N+](=O)[O-])cc2)c(O)c([N+](=O)[O-])c1 [Compound 27] | not fulfilled |
| CCN(CC)C(=O)/C(C#N)=C/c1cc(OC(=O)OCC2CCCCC2)c(O)c([N+](=O)[O-])c1 [Compound 57] | not fulfilled |
| CCN(CC)C(=O)/C(C#N)=C/c1cc(OC(=O)OCCc2cccs2)c(O)c([N+](=O)[O-])c1 [Compound 61] | not fulfilled |
| CCCC(C)OC(=O)Oc1cc(/C=C(\C#N)C(=O)N(CC)CC)cc([N+](=O)[O-])c1O (stereo not shown) [Compound 63] | fulfilled |
| CCC(CC)OC(=O)Oc1cc(/C=C(\C#N)C(=O)N(CC)CC)cc([N+](=O)[O-])c1O [Compound 10] | fulfilled |
| CCN(CC)C(=O)/C(C#N)=C/c1cc(OC(=O)OCC(=O)O)c(O)c([N+](=O)[O-])c1 [Compound 146] | fulfilled |
| CCN(CC)C(=O)/C(C#N)=C/c1cc(OC(=O)OC2CC3CCC2(C)C3(C)C)c(O)c([N+](=O)[O-])c1 (stereo not shown) [Compound 67] | fulfilled |

* * *

Assay: Permeability in Caco-2 cells, apical to basolateral
Type: in vitro ADME
Design: dose or concentration left out as unconfirmed
Details: human; 21d Caco-2 monolayer, apical pH 6.5 to basolateral pH 7.4, 60 minutes
So basically: is Papp A→B at 60 min under 5 ×10⁻⁶ cm/s? Then condition met. Not under? Then condition not met.

| Compound | Group |
| --- | --- |
| CCN(CC)C(=O)/C(C#N)=C/c1cc(OC(=O)OCC2CCCCC2)c(O)c([N+](=O)[O-])c1 | condition not met |
| CCCOC(=O)Oc1cc(/C=C(\C#N)C(=O)N(CC)CC)cc([N+](=O)[O-])c1O | condition not met |
| CCN(CC)C(=O)/C(C#N)=C/c1cc(OC(=O)OCC2COC(C)(C)O2)c(O)c([N+](=O)[O-])c1 (stereo not shown) | condition met |
| CCN(CC)C(=O)/C(C#N)=C/c1cc(OC(=O)OCC(C)C)c(O)c([N+](=O)[O-])c1 | condition not met |
